For each record, write down the corresponding tissue uptake at 4 h.
Assay: Biodistribution of 177Lu-labeled αMSH analogues in mice bearing SK-MEL-1 human melanoma
Conditions: male, NRG (NOD.Cg-Rag1tm1Mom Il2rgtm1Wjl/SzJ), mouse, thyroid, total radioactivity
Note to self: number, then unit, no commentary.

Any idea what tissue uptake at 4 h was measured for CCCC[C@H](NC(=O)CN1CCC(NC(=O)[C@H](CCCCNC(=O)CN2CCN(CC(=O)O)CCN(CC(=O)O)CCN(CC(=O)O)CC2)NC(=O)CNC(=O)CCCc2ccc(I)cc2)CC1)C(=O)N[C@H]1CC(=O)NCCCC[C@@H](C(N)=O)N(C)C(=O)[C@H](Cc2c[nH]c3ccccc23)NC(=O)[C@H](CCCNC(=N)N)N(C)C(=O)[C@@H](Cc2ccccc2)NC(=O)[C@H](Cc2c[nH]cn2)NC1=O [^177Lu-labeled CCZ01148, metal not drawn] ?
6.83 %ID/g

Can you handle CCCC[C@H](NC(=O)CN1CCC(NC(=O)[C@H](CCCCNC(=O)CN2CCN(CC(=O)O)CCN(CC(=O)O)CCN(CC(=O)O)CC2)NC(=O)CNC(=O)CCCc2ccc(-c3ccc(C)cc3)cc2)CC1)C(=O)N[C@H]1CC(=O)NCCCC[C@@H](C(N)=O)N(C)C(=O)[C@H](Cc2c[nH]c3ccccc23)NC(=O)[C@H](CCCNC(=N)N)N(C)C(=O)[C@@H](Cc2ccccc2)NC(=O)[C@H](Cc2c[nH]cn2)NC1=O [^177Lu-labeled CCZ01158, metal not drawn] next?
5.74 %ID/g

How about this molecule: CCCC[C@H](NC(=O)CN1CCC(NC(=O)[C@H](CCCCNC(=O)CN2CCN(CC(=O)O)CCN(CC(=O)O)CCN(CC(=O)O)CC2)NC(=O)[C@H](CCC(=O)O)NC(=O)CCCc2ccc(I)cc2)CC1)C(=O)N[C@H]1CC(=O)NCCCC[C@@H](C(N)=O)N(C)C(=O)[C@H](Cc2c[nH]c3ccccc23)NC(=O)[C@H](CCCNC(=N)N)N(C)C(=O)[C@@H](Cc2ccccc2)NC(=O)[C@H](Cc2c[nH]cn2)NC1=O [^177Lu-labeled CCZ01118, metal not drawn]
3.11 %ID/g

Every entry's value here was drawn from patent US11395857B2.
